system: Mus musculus; assay: Tested for effect on central nervous system in mice at 100 mg/kg peroral dose barbiturate-sleeping time (BST); format: functional; details: route oral
Listed below: X values for each entry.

Molecule: CCOC(=O)N1CCC(=C2c3ccc(Cl)cc3CCc3cccnc32)CC1 [LORATADINE]
X [min]: 320
//
Molecule: Cc1cncc(CN2CCC(=C3c4ccc(Cl)cc4CCc4cccnc43)CC2)c1 [RUPATADINE]
X [min]: 138
//
Molecule: CC(=O)N1CCC(=C2c3ccc(Cl)cc3CCc3cccnc32)CC1 [SCH-37370]
X [min]: 296
//
Molecule: CC(C)(C)c1ccc(C(O)CCCN2CCC(C(O)(c3ccccc3)c3ccccc3)CC2)cc1 (centres undefined) [TERFENADINE]
X [min]: 133
